Values from patent US11840560B2

experiment: in vivo; parameters: species or system beagle dogs; details: male, beagle, dog, po, 300 mg
*1 amine or outer side, *2 acyl side, *3 side chain or, on linkers, in order; H or OH if unused. Side-chain parts run from the residue outwards. [ ]: non-standard residue; d: D form. The star is where a group is joined. X1 = O=C(O)CCCCCCCCCCCCCCC(=O)N[C@@H](CCC(=O)NCCCC[C@H](NC(=O)CC[C@H](NC(=O)CCCCCCCCCCCCCCC(=O)O)C(=O)O)C(=O)*)C(=O)O; N(2-Aminoethyl)Gly = O=C(CN(CCN[*:3])[*:1])[*:2]; C18 diacid = O=C(O)CCCCCCCCCCCCCCCCC(=O)*; C16 diacid = O=C(O)CCCCCCCCCCCCCCC(=O)*; γGlu = O=C(O)[C@H](CCC(=O)[*:2])N[*:1]; εLys = N[C@@H](CCCCN[*:1])C(=O)[*:2]; AEEA = NCCOCCOCC(=O)O; Aib = CC(C)(N)C(=O)O; Sar = CNCC(=O)O
Listing of recorded half-life by entry.

substance: H-K([γGlu-C16 diacid])[Sar]Y[Aib]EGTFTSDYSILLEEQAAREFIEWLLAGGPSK([AEEA-AEEA-γGlu-C16 diacid])GAPPPS-OH [Compound 3]
scale unit: h
half-life: 139

substance: H-G[N(2-Aminoethyl)Gly]([γGlu-C16 diacid])Y[Aib]EGTFTSDYSILLEK([εLys-εLys-γGlu-C18 diacid])QAAREFIEWLLAGGPSSGAPPPS-OH [Compound 17]
scale unit: h
half-life: 105

substance: H-K([γGlu-C18 diacid])[Sar]Y[Aib]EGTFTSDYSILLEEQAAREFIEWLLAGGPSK([εLys-εLys-γGlu-C18 diacid])GAPPPS-OH [Compound 15]
scale unit: h
half-life: 124

substance: H-K([γGlu-C16 diacid])VY[Aib]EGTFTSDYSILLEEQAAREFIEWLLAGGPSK([AEEA-AEEA-γGlu-C16 diacid])GAPPPS-OH [Non-converting compound 1]
scale unit: h
half-life: 137

substance: H-K([γGlu-C16 diacid])[Sar]Y[Aib]EGTFTSDYSILLEK([εLys-εLys-γGlu-C18 diacid])QAAREFIEWLLAGGPSSGAPPPS-OH [Compound 16]
scale unit: h
half-life: 96

substance: H-K(X1)[Sar]Y[Aib]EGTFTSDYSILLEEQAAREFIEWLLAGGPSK([εLys-εLys-γGlu-C16 diacid])GAPPPS-OH [Compound 14]
scale unit: h
half-life: 119

substance: H-G[N(2-Aminoethyl)Gly]([γGlu-C16 diacid])Y[Aib]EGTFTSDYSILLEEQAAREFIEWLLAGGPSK([AEEA-AEEA-γGlu-C16 diacid])GAPPPS-OH [Compound 2]
scale unit: h
half-life: 142

substance: H-[dK]([γGlu-C16 diacid])[Sar]Y[Aib]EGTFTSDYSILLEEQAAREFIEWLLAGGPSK([AEEA-AEEA-γGlu-C16 diacid])GAPPPS-OH [Compound 1]
scale unit: h
half-life: 146

substance: H-K([γGlu-C16 diacid])VY[Aib]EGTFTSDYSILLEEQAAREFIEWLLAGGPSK([εLys-εLys-γGlu-C16 diacid])GAPPPS-OH [Non-converting compound 2]
scale unit: h
half-life: 130

substance: H-K([γGlu-C18 diacid])[Sar]Y[Aib]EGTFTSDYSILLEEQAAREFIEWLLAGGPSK([εLys-εLys-γGlu-C16 diacid])GAPPPS-OH [Compound 13]
scale unit: h
half-life: 121

substance: H-K([γGlu-C16 diacid])VY[Aib]EGTFTSDYSILLEK([εLys-εLys-γGlu-C18 diacid])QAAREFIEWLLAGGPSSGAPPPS-OH [Non-converting compound 3]
scale unit: h
half-life: 115

substance: H-K([γGlu-C16 diacid])[Sar]Y[Aib]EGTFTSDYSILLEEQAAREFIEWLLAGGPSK([εLys-εLys-γGlu-C16 diacid])GAPPPS-OH [Compound 12]
scale unit: h
half-life: 143

substance: H-L[N(2-Aminoethyl)Gly]([γGlu-C16 diacid])Y[Aib]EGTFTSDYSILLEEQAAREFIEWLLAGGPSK([AEEA-AEEA-γGlu-C16 diacid])GAPPPS-OH [Compound 5]
scale unit: h
half-life: 106
